# Tested on: Swiss mice, Sarcoma 180 sc, mean tumor weight T/C
# procedureDetails: NCI In Vivo Anticancer Drug Screen. Data for tumor model Sarcoma 180 (subcutaneous) in Swiss mice
# reportedConditions: endpoint: mean tumor weight; dose: 0.62 mg/kg/injection; schedule: Q#A X014 (ip); vehicle: carboxymethylcellulose (CMC); higher = larger tumour
recordedMetric: T/C

For the molecule shown here, Nc1ncnc2c1ccn2C1OC(CO)C(O)C1O (stereo unspecified) , give the reported T/C.
90 % of control

For the molecule shown here, NC(Cc1ccc(N(CCCl)CCCl)cc1)C(=O)O (stereo unspecified) , give the reported T/C.
83 % of control

For the molecule shown here, Nc1nc(=S)c2ncn(C3OC(CO)C(O)C3O)c2[nH]1 (stereo unspecified) , give the reported T/C.
86 % of control

For the molecule shown here, O=c1[nH]cc(N(CCCl)CCCl)c(=O)[nH]1 , give the reported T/C.
32 % of control

For the molecule shown here, CSCS(=O)C[C@H](CO)NC(=O)/C=C/c1c(C)[nH]c(=O)[nH]c1=O (stereo partly specified) , give the reported T/C.
27 % of control

For the molecule shown here, COC12C(COC(N)=O)C3=C(C(=O)C(C)=C(N)C3=O)N1CC1C2N1C (stereo unspecified) , give the reported T/C.
62 % of control

====

# System: Swiss mice, Sarcoma 180 sc, mean tumor weight T/C
# procedureDetails: NCI In Vivo Anticancer Drug Screen. Data for tumor model Sarcoma 180 (subcutaneous) in Swiss mice
# reportedConditions: endpoint: mean tumor weight; dose: 55.0 mg/kg/injection; schedule: Q01DX007 (ip); vehicle: carboxymethylcellulose (CMC); higher = larger tumour
Consider the following compounds; for each one, report its T/C.

For the compound shown here, CCNc1nncs1 , give the reported T/C.
47 % of control

For the compound shown here, c1ccc2c(c1)-c1cccc3c1c-2cc1ccccc13 , give the reported T/C.
35 % of control

For the compound shown here, C=CCNc1ccc(C)cc1 , give the reported T/C.
86 % of control

For the compound shown here, CCCCCCCCCCCCOP(N)(=O)OCCCCCCCCCCCC , give the reported T/C.
86 % of control

For the compound shown here, Cc1ncc(CO)c(C)c1O , give the reported T/C.
54 % of control

For the compound shown here, CC(=O)Nc1cc2c(cc1Cl)C(=O)c1cc(Cl)ccc1-2 , give the reported T/C.
75 % of control

====

Consider the following compounds; for each one, report its T/C.
# Test system: Swiss mice, Sarcoma 180 sc, mean tumor weight T/C
# procedureDetails: NCI In Vivo Anticancer Drug Screen. Data for tumor model Sarcoma 180 (subcutaneous) in Swiss mice
# reportedConditions: endpoint: mean tumor weight; dose: 80.0 mg/kg/injection; schedule: Q01DX007 (ip); vehicle: carboxymethylcellulose (CMC); higher = larger tumour

Which T/C is reported with Swiss mice, Sarcoma 180 sc, mean tumor weight T/C for this entry: Cc1cc2nc(Cc3nc4cc(C)c(C)cc4[nH]3)[nH]c2cc1C ?
102 % of control

Which T/C is reported with Swiss mice, Sarcoma 180 sc, mean tumor weight T/C for this entry: CCCCCCCCCCCCOP(N)(=O)OCCCCCCCCCCCC ?
103 % of control

Which T/C is reported with Swiss mice, Sarcoma 180 sc, mean tumor weight T/C for this entry: Nc1nc(=S)c2ncn(C3OC(COC(=O)c4ccc([N+](=O)[O-])cc4)C(OC(=O)c4ccc([N+](=O)[O-])cc4)C3OC(=O)c3ccc([N+](=O)[O-])cc3)c2[nH]1 (stereo not drawn) ?
16 % of control

Which T/C is reported with Swiss mice, Sarcoma 180 sc, mean tumor weight T/C for this entry: O=c1[nH]c(=O)n(C2CC(O)C(CO)O2)cc1F (stereo not drawn) ?
29 % of control

Which T/C is reported with Swiss mice, Sarcoma 180 sc, mean tumor weight T/C for this entry: Cn1cc(F)c(=O)[nH]c1=O ?
95 % of control

Which T/C is reported with Swiss mice, Sarcoma 180 sc, mean tumor weight T/C for this entry: CCCCNc1nc(NCCCC)c2nsnc2n1 ?
46 % of control

Which T/C is reported with Swiss mice, Sarcoma 180 sc, mean tumor weight T/C for this entry: Cc1nc2nc(N)nc(N)c2nc1C ?
81 % of control

Which T/C is reported with Swiss mice, Sarcoma 180 sc, mean tumor weight T/C for this entry: O=P1(N(CCCl)CCCl)NCCCO1 (stereo not drawn) ?
4 % of control

====

# System: Swiss mice, Sarcoma 180 sc, mean tumor weight T/C
# procedureDetails: NCI In Vivo Anticancer Drug Screen. Data for tumor model Sarcoma 180 (subcutaneous) in Swiss mice
# reportedConditions: endpoint: mean tumor weight; dose: 3.0 mg/kg/injection; schedule: Q01DX007 (ip); vehicle: carboxymethylcellulose (CMC); higher = larger tumour
recordedMetric: T/C

For the molecule shown here, [N-]=[N+]=[N-] , give the reported T/C.
61 % of control

For the molecule shown here, NCCCC(NC(=O)CCCCCCCCN=C(N)N)C(O)CCCCCCCCN=C(N)N (centres undefined) , give the reported T/C.
76 % of control

For the molecule shown here, CC(=O)Nc1c(Cl)c(Cl)c2c(c1Cl)Cc1cc(Br)ccc1-2 , give the reported T/C.
75 % of control

For the molecule shown here, Nc1nc(=S)c2[nH]cnc2[nH]1 , give the reported T/C.
25 % of control

====

# System: Swiss mice, Sarcoma 180 sc, mean tumor weight T/C
# procedureDetails: NCI In Vivo Anticancer Drug Screen. Data for tumor model Sarcoma 180 (subcutaneous) in Swiss mice
# reportedConditions: endpoint: mean tumor weight; dose: 15.0 mg/kg/injection; schedule: Q#A X014 (ip); vehicle: carboxymethylcellulose (CMC); higher = larger tumour
Square brackets hold non-standard residues; d marks the D form. Peptide text beside a SMILES is read from it. Ac5c = NC1(C(=O)O)CCCC1
Consider the following compounds; for each one, report its T/C.

For the compound shown here, NC1(C(=O)NC2(C(=O)O)CCCC2)CCCC1 (H-[Ac5c]-[Ac5c]-OH) , give the reported T/C.
65 % of control

For the compound shown here, O=C1Cc2ccccc2C(=O)N1 , give the reported T/C.
84 % of control

For the compound shown here, NNC(=O)c1ccncc1 , give the reported T/C.
105 % of control

For the compound shown here, CC(N)C(=O)NC1(C(=O)O)CCCC1 (centres undefined) , give the reported T/C.
56 % of control

====

Consider the following molecules; for each one, report its T/C.
# Test system: Swiss mice, Sarcoma 180 sc, mean tumor weight T/C
# procedureDetails: NCI In Vivo Anticancer Drug Screen. Data for tumor model Sarcoma 180 (subcutaneous) in Swiss mice
# reportedConditions: endpoint: mean tumor weight; dose: 6.2 mg/kg/injection; schedule: Q01DX007 (ip); vehicle: carboxymethylcellulose (CMC); higher = larger tumour

For the molecule shown here, CC(=O)Nc1c(Cl)c(Cl)c2c(c1Cl)Cc1cc(Cl)c(Cl)cc1-2 , give the reported T/C.
52 % of control

For the molecule shown here, CSc1nc(C)c(Br)c(Sc2nc(N)nc3nc[nH]c23)n1 , give the reported T/C.
77 % of control

For the molecule shown here, CCCC(=O)OCC1OC(n2cnc3c(=S)nc(N)[nH]c32)C(OC(=O)CCC)C1OC(=O)CCC (stereo not given) , give the reported T/C.
72 % of control

For the molecule shown here, COc1ccc2[nH]c3c(C)c4ccncc4c(C)c3c2c1 , give the reported T/C.
81 % of control

For the molecule shown here, [Cu+2].[O-]c1ccc(Br)c2cccnc12.[O-]c1ccc(Br)c2cccnc12 , give the reported T/C.
66 % of control

====

# System: Swiss mice, Sarcoma 180 sc, mean tumor weight T/C
# procedureDetails: NCI In Vivo Anticancer Drug Screen. Data for tumor model Sarcoma 180 (subcutaneous) in Swiss mice
# reportedConditions: endpoint: mean tumor weight; dose: 750.0 mg/kg/injection; schedule: Q01DX007 (ip); vehicle: carboxymethylcellulose (CMC); higher = larger tumour
recordedMetric: T/C

Which T/C is reported with Swiss mice, Sarcoma 180 sc, mean tumor weight T/C for this entry: NC1(C(=O)OCc2ccccc2)CCCC1 ?
55 % of control

Which T/C is reported with Swiss mice, Sarcoma 180 sc, mean tumor weight T/C for this entry: O=CN(O)CC(=O)O ?
62 % of control

Which T/C is reported with Swiss mice, Sarcoma 180 sc, mean tumor weight T/C for this entry: Clc1ccc2c(c1)Cc1cc(N=Cc3ccccc3Cl)ccc1-2 ?
31 % of control

Which T/C is reported with Swiss mice, Sarcoma 180 sc, mean tumor weight T/C for this entry: O=C(Nc1ccc2c(c1)Cc1cccc(NC(=O)C(Cl)Cl)c1-2)C(Cl)Cl ?
48 % of control

Which T/C is reported with Swiss mice, Sarcoma 180 sc, mean tumor weight T/C for this entry: CCCCCCCCCCCCO[P+](=O)OCCCCCCCCCCCC ?
12 % of control

Which T/C is reported with Swiss mice, Sarcoma 180 sc, mean tumor weight T/C for this entry: CCCCC(=O)OCC1OC(n2cnc3c(=S)nc[nH]c32)C(OC(=O)CCCC)C1OC(=O)CCCC (stereo unspecified) ?
43 % of control
